- studyTarget: human Kv1.5 (Homo sapiens)
- Construct: expressed in transfected cells; host or cells: stably transfected cells
- Sequence (P22460 whole entry): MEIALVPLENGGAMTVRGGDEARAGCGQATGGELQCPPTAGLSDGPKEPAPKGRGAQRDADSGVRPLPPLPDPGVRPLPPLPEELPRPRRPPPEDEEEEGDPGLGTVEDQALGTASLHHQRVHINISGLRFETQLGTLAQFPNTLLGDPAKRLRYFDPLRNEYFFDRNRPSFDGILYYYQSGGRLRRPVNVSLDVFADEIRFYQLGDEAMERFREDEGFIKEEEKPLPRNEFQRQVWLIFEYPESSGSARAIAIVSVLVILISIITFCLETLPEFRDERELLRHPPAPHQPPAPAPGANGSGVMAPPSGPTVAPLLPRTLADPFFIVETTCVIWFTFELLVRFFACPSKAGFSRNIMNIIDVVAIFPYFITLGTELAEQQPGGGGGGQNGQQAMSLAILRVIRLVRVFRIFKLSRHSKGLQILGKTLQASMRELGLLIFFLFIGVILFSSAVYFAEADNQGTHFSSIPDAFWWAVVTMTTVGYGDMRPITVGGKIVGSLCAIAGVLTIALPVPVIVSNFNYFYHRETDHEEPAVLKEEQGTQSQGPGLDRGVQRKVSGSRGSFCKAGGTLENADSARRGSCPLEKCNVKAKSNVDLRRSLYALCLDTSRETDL
- experimentDescription: Kv1.5 Autopatch Electrophysiology
- Assay type: cell-based
- conditionNotes: 1 μM compound; CHO cells stably transfected with human Kv1.5; AutoPatch whole cell mode; room temperature; read-out: Kv 1.5% Inhibition at 1 μM
measuredParameter: inhibition at 1 µM (%)
A number alone suffices; assume %.

Study these solved cases before continuing.
[
  {
    "cpdSmiles": "Cc1ccc(-c2csc3c(-c4ccc(N(C)C)cc4)cnc(NCc4ccccc4)c23)cc1",
    "units": "%",
    "inhibition at 1 µM": 14.5
  },
  {
    "cpdSmiles": "c1cc2scc(-c3ccc4c(c3)OCO4)c2c(NCc2ccc3c(c2)OCCO3)n1",
    "units": "%",
    "inhibition at 1 µM": 90.2
  },
  {
    "cpdSmiles": "Cc1ccc(-c2csc3ccnc(NCc4ccccc4)c23)cc1",
    "units": "%",
    "inhibition at 1 µM": 90.2
  },
  {
    "cpdSmiles": "Fc1ccc(-c2csc3ccnc(NCc4cccs4)c23)cc1",
    "units": "%",
    "inhibition at 1 µM": 87.2
  },
  {
    "cpdSmiles": "COc1cccc(-c2csc3ccnc(NCc4cccs4)c23)c1",
    "units": "%",
    "inhibition at 1 µM": 89.4
  },
  {
    "cpdSmiles": "c1ccc(-c2csc3ccnc(NCc4cccs4)c23)cc1",
    "units": "%",
    "inhibition at 1 µM": 81.9
  },
  {
    "cpdSmiles": "Cc1ccc(-c2cnc(NCc3ccccc3)c3c(-c4ccc(C)cc4)csc23)cc1",
    "units": "%",
    "inhibition at 1 µM": 39.2
  },
  {
    "cpdSmiles": "Cc1ccc(-c2csc3c(-c4cccc(S(C)(=O)=O)c4)cnc(NCc4ccccc4)c23)cc1",
    "units": "%",
    "inhibition at 1 µM": 39.8
  }
]

The record that follows has no inhibition at 1 µM shown yet.
*Q* # get_value(readout='inhibition at 1 µM', item= "Cc1ccc(-c2csc3c(-c4cccnc4)cnc(NCc4ccccc4)c23)cc1" )
*A* 90

###

- studyTarget: human Kv1.5 (Homo sapiens)
- Construct: expressed in transfected cells; host or cells: stably transfected cells
- experimentDescription: Kv1.5 Autopatch Electrophysiology
- Assay type: cell-based
- conditionNotes: 1 μM compound; CHO cells stably transfected with human Kv1.5; AutoPatch whole cell mode; room temperature; read-out: Kv 1.5% Inhibition at 1 μM
Catalogue of inhibition at 1 µM readings, one per entry.
A number alone suffices; assume %.

[
  {
    "cpdSmiles": "COc1cccc(-c2csc3ccnc(NCc4ccccc4)c23)c1",
    "observedResult": 79.6
  },
  {
    "cpdSmiles": "c1ccc(-c2csc3ccnc(NCc4ccco4)c23)cc1",
    "observedResult": 80.4
  },
  {
    "cpdSmiles": "c1ccc(-c2csc3ccnc(NCc4ccc5c(c4)OCCO5)c23)cc1",
    "observedResult": 85.3
  },
  {
    "cpdSmiles": "Cc1cc2scc(-c3ccccc3)c2c(NCc2ccccc2)n1",
    "observedResult": 50.8
  },
  {
    "cpdSmiles": "Cc1ccc(-c2csc3c(-c4ccncc4)cnc(NCc4ccccc4)c23)cc1",
    "observedResult": 36.3
  },
  {
    "cpdSmiles": "Cc1ccc(-c2csc3c(-c4cccc(O)c4)cnc(NCc4ccccc4)c23)cc1",
    "observedResult": 52.4
  }
]

*Q* # get_value(readout='inhibition at 1 µM', item= "Cc1ccc(-c2csc3ccnc(NCc4ccco4)c23)cc1" )
*A* 86.1

*Q* What would you report for "Fc1ccc(-c2csc3ccnc(NCc4ccccc4)c23)cc1" ?
*A* 90.2

*Q* What would you report for "Cc1ccc(-c2csc3c(-c4ccc(F)cc4)cnc(NCc4ccccc4)c23)cc1" ?
*A* 24.7

*Q* What would you report for "Cc1ccc(-c2csc3c(-c4ccccc4)cnc(NCc4ccccc4)c23)cc1" ?
*A* 25.6

*Q* What would you report for "COc1cccc(-c2csc3ccnc(NCc4ccc5c(c4)OCCO5)c23)c1" ?
*A* 75.6

*Q* What would you report for "COc1cccc(-c2csc3ccnc(NCc4ccco4)c23)c1" ?
*A* 91.9
